Hello, the source for this data is ChEMBL document CHEMBL1144450, in case you need it.

experiment: Percentage of nitric oxide released by the compound when incubated in phosphate buffer solution at pH 7.4, 37 degree C for 1.5 h; format: functional
metric_name: Activity (%)
Kindly provide the numeric value in % only, without the unit symbol.

Recorded Activity, per entry:
molecule	display_unit	recorded_value
CC(=O)Oc1ccccc1C(=O)OCO/N=[N+](\[O-])N(C)C	%	15.4
CC(C)Cc1ccc(C(C)C(=O)OCO/N=[N+](\[O-])N2CCCC2)cc1 (stereo not drawn)	%	14.9
COc1ccc2c(c1)c(CC(=O)OCO/N=[N+](\[O-])N1CCCC1)c(C)n2C(=O)c1ccc(Cl)cc1	%	15.1
CC(=O)Oc1ccccc1C(=O)OCO/N=[N+](\[O-])N1CCCC1	%	14.8
[O-]/[N+](=N\O)N1CCCC1	%	94
CC(C)Cc1ccc(C(C)C(=O)OCO/N=[N+](\[O-])N(C)C)cc1 (stereo not drawn)	%	16.1
CN(C)/[N+]([O-])=N/O	%	95.2

Note: attention shifts to another entry.
## Input Identify Activity associated with the molecule `COc1ccc2c(c1)c(CC(=O)OCO/N=[N+](\[O-])N(C)C)c(C)n2C(=O)c1ccc(Cl)cc1`
## Output 14.3
